biological target: huPD-L1 (Homo sapiens, UniProt Q9NZQ7); test: Flow binding to CHO cells stably expressing PD-L1; parameters: huCTLA4 and huPD-L1, full-length mammalian surface expression constructs were generated; expressed in transfected cells; host or cells: CHO cells, lentiviral transduction, sorted to >98% purity; settings: Table E11; 33.3 nM; listed as WT CD80 ECD-Fc = 1.0
Sequence (Q9NZQ7 19-290): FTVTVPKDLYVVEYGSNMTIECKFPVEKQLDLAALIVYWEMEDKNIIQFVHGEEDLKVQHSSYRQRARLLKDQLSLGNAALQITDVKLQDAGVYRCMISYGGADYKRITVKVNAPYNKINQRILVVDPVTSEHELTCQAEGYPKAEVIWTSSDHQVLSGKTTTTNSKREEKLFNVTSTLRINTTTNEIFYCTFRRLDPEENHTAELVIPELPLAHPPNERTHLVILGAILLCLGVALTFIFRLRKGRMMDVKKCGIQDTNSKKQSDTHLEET
propertyMeasured: PD-L1 Fold change to WT CD80
Keep it simple and answer with nothing but the number.

Record excerpt, results attached:
molecule	measValue
H18Y/V22D/E35D/M47V/N48K/V68M (protein, UniProt P33681 35-288, looked up, variant H18Y V22D E35D M47V N48K V68M) T-lymphocyte activation …: VIHVTKEVKEVATLSCGYNVSDEELAQTRIYWQKDKKMVLTMMSGDVKIWPEYKNRTIFDITNNLSIMILALRPSDEGTYECVVLKYEKDAFKREHLAEVTLSVKADFPTPSISDFEIPTSNIRRIICSTSGGFPEPHLSWLENGEELNAINTTVSQDPETELYAVSSKLDFNMTTNHSFMCLIKYGHLRVNQTFNWNTTKQEHFPDNLLPSWAITLISVNGIFVICCLTYCFAPRCRERRRNERLRRESVRPV	249.8
Q33R/E35D/M38I/M47L/V68M (protein, UniProt P33681 35-288, looked up, variant Q33R E35D M38I M47L V68M) T-lymphocyte activation …: VIHVTKEVKEVATLSCGHNVSVEELAQTRIYWRKDKKIVLTMMSGDLNIWPEYKNRTIFDITNNLSIMILALRPSDEGTYECVVLKYEKDAFKREHLAEVTLSVKADFPTPSISDFEIPTSNIRRIICSTSGGFPEPHLSWLENGEELNAINTTVSQDPETELYAVSSKLDFNMTTNHSFMCLIKYGHLRVNQTFNWNTTKQEHFPDNLLPSWAITLISVNGIFVICCLTYCFAPRCRERRRNERLRRESVRPV	320.4

Next item in the queue.
Need PD-L1 Fold change to WT CD80, item H18Y/E35D/M47L/Y53F/V68M/A71G (protein, UniProt P33681 35-288, looked up, variant H18Y E35D M47L Y53F V68M A71G) T-lymphocyte activation …: VIHVTKEVKEVATLSCGYNVSVEELAQTRIYWQKDKKMVLTMMSGDLNIWPEFKNRTIFDITNNLSIMILGLRPSDEGTYECVVLKYEKDAFKREHLAEVTLSVKADFPTPSISDFEIPTSNIRRIICSTSGGFPEPHLSWLENGEELNAINTTVSQDPETELYAVSSKLDFNMTTNHSFMCLIKYGHLRVNQTFNWNTTKQEHFPDNLLPSWAITLISVNGIFVICCLTYCFAPRCRERRRNERLRRESVRPV 99.1
